All figures here come from ChEMBL document CHEMBL5316361.

Form field: selectivity ratio (one value per entry).
test: Therapeutic index, ratio of HC50 for Sheep RBC to IC50 for cytotoxicity against human MDA-MB-231 cultured as 3D cells; assay type: toxicity, cell-based; conditions: sheep (RBC) and human (MDA-MB-231), sheep red blood cells versus MDA-MB-231 cells, 3D culture; read-out: TI
Output: the number by itself.

compound	reading
CCOC(=O)CCCCCCC/C=C\CCCCCCC(C)O[C@@H]1O[C@H](COC(C)=O)[C@@H](O)[C@H](O)[C@H]1O[C@@H]1O[C@H](COC(C)=O)[C@@H](O)[C@H](O)[C@H]1O (some centres not stated)	0.96

Turning to the following compound.
Challenge: Look up selectivity ratio: CC(=O)OC[C@H]1O[C@H]2OC(C)CCCCCC/C=C\CCCCCCCC(=O)O[C@H]3[C@H](O)[C@@H](O)[C@H](O[C@@H]2[C@@H](O)[C@@H]1O)O[C@@H]3COC(C)=O (some centres not stated)
Response given: 3.79

* * *

assay: Therapeutic index, ratio of HC50 for Sheep RBC to IC50 for cytotoxicity against human MDA-MB-231 cultured as 2.5D cells; assay type: toxicity, cell-based; conditions: sheep (RBC) and human (MDA-MB-231), sheep red blood cells versus MDA-MB-231 cells, 2.5D culture; read-out: TI
test-readout: selectivity ratio

compound	selectivity ratio
CC(=O)OC[C@H]1O[C@H]2OC(C)CCCCCC/C=C\CCCCCCCC(=O)O[C@H]3[C@H](O)[C@@H](O)[C@H](O[C@@H]2[C@@H](O)[C@@H]1O)O[C@@H]3COC(C)=O (some centres not stated)	3.29

Next:
Challenge: # get_value(readout='selectivity ratio', item= CCOC(=O)CCCCCCC/C=C\CCCCCCC(C)O[C@@H]1O[C@H](COC(C)=O)[C@@H](O)[C@H](O)[C@H]1O[C@@H]1O[C@H](COC(C)=O)[C@@H](O)[C@H](O)[C@H]1O (some centres not stated) )
Response given: 1.04

* * *

test: Growth inhibition of human dermal fibroblast cultured as 2D cells by tryphan blue based analysis; format: toxicity, cell-based; details: human dermal fibroblasts (NHDF), 2D culture
test-readout: GI50 (µg/mL)
Numbers only; they are read as µg/mL.

Challenge: Would you mind telling me what GI50 value was observed for COc1cccc2c1C(=O)c1c(O)c3c(c(O)c1C2=O)C[C@@](O)(C(=O)CO)C[C@@H]3O[C@H]1C[C@H](N)[C@H](O)[C@H](C)O1 [DOXORUBICIN] ?
Response given: 30

* * *

Examples of compounds with documented selectivity ratio follow.
test: Therapeutic index, ratio of IC50 for cytotoxicity against human dermal fibroblast cultured as 2.5 D cells to IC50 for cytotoxicity against human MDA-MB-231 cultured as 2.5 D cells; type: toxicity, cell-based; conditions: read-out: TI
No unit in the answer, only the number.

compound	selectivity ratio
CC(=O)OC[C@H]1O[C@H]2OC(C)CCCCCC/C=C\CCCCCCCC(=O)O[C@H]3[C@H](O)[C@@H](O)[C@H](O[C@@H]2[C@@H](O)[C@@H]1O)O[C@@H]3COC(C)=O (some centres not stated)	0.82

Next compound, selectivity ratio to be filled in.
Challenge: // returns reported selectivity ratio for input CCOC(=O)CCCCCCC/C=C\CCCCCCC(C)O[C@@H]1O[C@H](COC(C)=O)[C@@H](O)[C@H](O)[C@H]1O[C@@H]1O[C@H](COC(C)=O)[C@@H](O)[C@H](O)[C@H]1O (some centres not stated)
Response given: 0.36
